- Assay Explanation: Mouse pharmacokinetics, oral (Experiment 1)
- Type: in vivo, C57BL/6 mice
- Condition Label: mice, PO 100 mg/kg, fasted overnight, plasma
In this section we review reported MRT inf values for a set of compounds.
Write the number in h without appending the unit.

Compound	Quantitative Result
Cn1c(=O)n(C2CCC(=O)NC2=O)c2cccc(C#CCCN3CCC4(CC3)CC(n3cc(NC(=O)c5cnn6ccc(N7C[C@H]8C[C@@H]7CO8)nc56)c(C(F)F)n3)C4)c21 (stereo partly drawn) [Example 22]	8

Reported MRT inf of Cn1c(=O)n(C2CCC(=O)NC2=O)c2cccc(C#CCOC3CCN(C(=O)N4CCC5(CC4)CC(n4cc(NC(=O)c6cnn7ccc(N8C[C@H]9C[C@@H]8CO9)nc67)c(C(F)F)n4)C5)CC3)c21 (stereo partly drawn) [Example 13] : 10.9

Data point: Cn1c(=O)n(C2CCC(=O)NC2=O)c2cccc(C#CCO[C@H]3CC[C@H](CN4CCC5(CC4)CC(n4cc(NC(=O)c6cnn7ccc(N8C[C@H]9C[C@@H]8CO9)nc67)c(C(F)F)n4)C5)CC3)c21 (stereo partly drawn) [Example 31] ; MRT inf = 10.4

* * *

Here the recorded DC50 is given for each entry.
- Test Target: IRAK4 (Homo sapiens)
- Sequence (Q9NWZ3 whole entry): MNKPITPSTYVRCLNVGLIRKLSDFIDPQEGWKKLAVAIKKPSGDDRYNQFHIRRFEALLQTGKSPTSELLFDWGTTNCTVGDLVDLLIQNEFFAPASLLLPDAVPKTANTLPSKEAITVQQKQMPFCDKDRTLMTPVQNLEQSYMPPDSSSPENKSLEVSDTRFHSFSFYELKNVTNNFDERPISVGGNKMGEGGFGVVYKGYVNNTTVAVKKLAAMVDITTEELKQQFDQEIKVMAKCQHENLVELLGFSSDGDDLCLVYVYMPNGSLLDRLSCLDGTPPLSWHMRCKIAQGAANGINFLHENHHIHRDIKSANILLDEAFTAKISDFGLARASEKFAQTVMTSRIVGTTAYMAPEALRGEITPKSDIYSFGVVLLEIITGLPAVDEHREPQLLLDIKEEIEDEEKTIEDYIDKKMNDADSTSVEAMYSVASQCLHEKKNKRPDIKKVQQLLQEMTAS
- Assay Explanation: Degradation of IRAK4 in SU-DHL-2 cells (flow cytometry)
- Format: cell-based
- Set-up: The degradation level of IRAK4 protein in SU-DHL-2 cell line by the compounds was detected by flow cytometry; endogenous in cells; host or cells: SU-DHL-2; OCI-LY3
- Condition Label: SU-DHL-2 cells, 24 hours incubation; read-out: SU-DHL-2 DC50
Your answer is read as nM, so omit the unit and give the number.

Solved entries:
Molecule	Property	Value Unit	Quantitative Result
Cn1c(=O)n(C2CCC(=O)NC2=O)c2cccc(C#CCCC(=O)N3CCC4(CC3)CC(n3cc(NC(=O)c5cnn6ccc(N7C[C@H]8C[C@@H]7CO8)nc56)c(C(F)F)n3)C4)c21 (stereo partly shown) [Example 24]	DC50	nM	4
Cn1c(=O)n(C2CCC(=O)NC2=O)c2cccc(C#CCOCCN3CCC4(CC3)CC(n3cc(NC(=O)c5cnn6ccc(N7C[C@H]8C[C@@H]7CO8)nc56)c(C(F)F)n3)C4)c21 (stereo partly shown) [Example 1]	DC50	nM	1.4
Cn1c(=O)n(C2CCC(=O)NC2=O)c2cccc(C#CCOCCN3CCC4(CCC(n5cc(NC(=O)c6cnn7ccc(N8C[C@H]9C[C@@H]8CO9)nc67)c(C(F)F)n5)CC4)CC3)c21 (stereo partly shown) [Example 37]	DC50	nM	24

The molecule listed as Cn1c(=O)n(C2CCC(=O)NC2=O)c2cccc(C#CCOC34CCC(CN5CCC6(CC5)CC(n5cc(NC(=O)c7cnn8ccc(N9C[C@H]%10C[C@@H]9CO%10)nc78)c(C(F)F)n5)C6)(CC3)CC4)c21 (stereo partly shown) [Example 52] has a reported DC50 of 3

* * *

- Test Target: UniProtKB Q9NWZ3
- Type: cell-based
- Set-up: endogenous in cells; host or cells: OCI-LY3
- Condition Label: read-out: OCI-LY3 DC50; OCI-LY3 cells
Property: DC50 (nM)
# number only, unit nM dropped from output

Recorded DC50, per entry:
Compound	Property	Quantitative Result
Cn1c(=O)n(C2CCC(=O)NC2=O)c2cccc(C#CCOCCN3CCC4(CC3)CC(n3cc(NC(=O)c5cnn6ccc(N7C[C@H]8C[C@@H]7CO8)nc56)c(C(F)F)n3)C4)c21 (stereo partly shown)	DC50	0.4
Cn1c(=O)n(C2CCC(=O)NC2=O)c2cccc(C#CCCN3CCC4(CC3)CC(n3cc(NC(=O)c5cnn6ccc(N7C[C@H]8C[C@@H]7CO8)nc56)c(C(F)F)n3)C4)c21 (stereo partly shown)	DC50	1.3
Cn1c(=O)n(C2CCC(=O)NC2=O)c2cccc(C#CCOCCC(=O)N3CCC4(CC3)CC(n3cc(NC(=O)c5cnn6ccc(N7C[C@H]8C[C@@H]7CO8)nc56)c(C(F)F)n3)C4)c21 (stereo partly shown)	DC50	2
Cn1c(=O)n(C2CCC(=O)NC2=O)c2cccc(C#CCOCC(C)(C)C(=O)N3CCC4(CC3)CC(n3cc(NC(=O)c5cnn6ccc(N7C[C@H]8C[C@@H]7CO8)nc56)c(C(F)F)n3)C4)c21 (stereo partly shown)	DC50	28
Cn1c(=O)n(C2CCC(=O)NC2=O)c2cccc(C#CCCCCN3CCC4(CC3)CC(n3cc(NC(=O)c5cnn6ccc(N7C[C@H]8C[C@@H]7CO8)nc56)c(C(F)F)n3)C4)c21 (stereo partly shown)	DC50	1.5
Cn1c(=O)n(C2CCC(=O)NC2=O)c2cccc(C#CCO[C@H]3C[C@H](CN4CCC5(CC4)CC(n4cc(NC(=O)c6cnn7ccc(N8C[C@H]9C[C@@H]8CO9)nc67)c(C(F)F)n4)C5)C3)c21 (stereo partly shown)	DC50	1
Cn1c(=O)n(C2CCC(=O)NC2=O)c2cccc(C#CCOCC(=O)N3CCC4(CC3)CC(n3cc(NC(=O)c5cnn6ccc(N7C[C@H]8C[C@@H]7CO8)nc56)c(C(F)F)n3)C4)c21 (stereo partly shown)	DC50	5
Cn1c(=O)n(C2CCC(=O)NC2=O)c2cccc(C#CCO[C@H]3C[C@@H](CN4CCC5(CC4)CC(n4cc(NC(=O)c6cnn7ccc(N8C[C@H]9C[C@@H]8CO9)nc67)c(C(F)F)n4)C5)C3)c21 (stereo partly shown)	DC50	1
Cn1c(=O)n(C2CCC(=O)NC2=O)c2cccc(C#CCOCC3CC(N4CCC5(CC4)CC(n4cc(NC(=O)c6cnn7ccc(N8C[C@H]9C[C@@H]8CO9)nc67)c(C(F)F)n4)C5)C3)c21 (stereo partly shown)	DC50	2.3
Cn1c(=O)n(C2CCC(=O)NC2=O)c2cccc(C#CCCCN3CCC4(CC3)CC(n3cc(NC(=O)c5cnn6ccc(N7C[C@H]8C[C@@H]7CO8)nc56)c(C(F)F)n3)C4)c21 (stereo partly shown)	DC50	1

Quick note, DC50 for Cn1c(=O)n(C2CCC(=O)NC2=O)c2cccc(C#CCCC(=O)N3CCC4(CC3)CC(n3cc(NC(=O)c5cnn6ccc(N7C[C@H]8C[C@@H]7CO8)nc56)c(C(F)F)n3)C4)c21 (stereo partly shown) landed at 3

Entry Cn1c(=O)n(C2CCC(=O)NC2=O)c2cccc(C#CCOC(C)(C)C(=O)N3CCC4(CC3)CC(n3cc(NC(=O)c5cnn6ccc(N7C[C@H]8C[C@@H]7CO8)nc56)c(C(F)F)n3)C4)c21 (stereo partly shown) , DC50 reported as 13

Notebook: Cn1c(=O)n(C2CCC(=O)NC2=O)c2cccc(C#CCOCC3(C(=O)N4CCC5(CC4)CC(n4cc(NC(=O)c6cnn7ccc(N8C[C@H]9C[C@@H]8CO9)nc67)c(C(F)F)n4)C5)CC3)c21 (stereo partly shown) , DC50 read as 10
